Test system: E coli wild type
Assay: MIC by broth microdilution, wild type E coli
Assay type: cell-based
Settings: WT; Table 5 (Example 3)
MIC E. coli WT listing for selected compounds.
value_type: MIC E. coli WT (µg/mL)

[[record]]
compound = "NCC[C@H](O)C(=O)N[C@@H]1C[C@H](N)[C@@H](O[C@H]2O[C@H](CN)[C@@H](O)[C@H](O)[C@H]2O)[C@H](O)[C@H]1O[C@H]1O[C@H](CO)[C@@H](O)[C@H](N)[C@H]1O [AMK, reference compound]"
result_value = 2

[[record]]
compound = "CC(=O)NC1C(OC2C(N)CC(N)C(O)C2OC2OC(CO)C(OC3OC(CN)C(O)C(O)C3N)C2O)OC(CN)C(O)C1O (centres unmarked)"
result_value = 128

[[record]]
compound = "CC(=O)O.NCC1OC(OC2C(CO)OC(OC3C(O)C(N)CC(N)C3OC3OC(CO)C(O)C(O)C3O)C2O)C(N)C(O)C1O (centres unmarked)"
result_value = 32


###

System: E coli carrying specific resistance determinants
Experiment: MIC by broth microdilution, E coli carrying specific resistance determinants
Format: cell-based
Conditions: Escherichia coli, read-out: MIC E. coli AAC(2′) pH434
Structures can show the parent of a compound that is named as a salt.
value_type: MIC (µg/mL)

[[record]]
compound = "CCNC1C(OC2C(N)CC(N)C(O)C2OC2OC(CO)C(OC3OC(CN)C(O)C(O)C3N)C2O)OC(CN)C(O)C1O (stereo not drawn) [Compound 172, 2′-N-Ethyl-neomycin acetate salt]"
result_value = 1

[[record]]
compound = "CNC1C(OC2C(N)CC(N)C(O)C2OC2OC(CO)C(OC3OC(CN)C(O)C(O)C3N)C2O)OC(CO)C(O)C1O (stereo not drawn) [Compound 115, 2′-N-Methyl-paromomycin acetate salt]"
result_value = 8

[[record]]
compound = "CCCNC1C(OC2C(N)CC(N)C(O)C2OC2OC(CO)C(OC3OC(CN)C(O)C(O)C3N)C2O)OC(CO)C(O)C1O (stereo not drawn) [Compound 128, 2′-N-Propyl-paromomycin acetate salt]"
result_value = 4


###

MIC AG031 P. aer. APH(3′)-II listing for selected compounds.
Test system: P aeruginosa
Assay: MIC by broth microdilution, P aeruginosa isolates
Type: cell-based, Pseudomonas aeruginosa
Settings: clinical isolate AG031, APH(3′)-II
value_type: MIC AG031 P. aer. APH(3′)-II

[[record]]
compound = "NC[C@H]1O[C@H](O[C@H]2[C@H](O[C@@H]3O[C@H](CNC=O)[C@@H](O)[C@H]3O)[C@@H](O)[C@H](N)C[C@@H]2N)[C@H](N)[C@@H](O)[C@@H]1O"
result_value = ">128 µg/mL"

[[record]]
compound = "NCC1OC(OC2C(CO)OC(OC3C(O)C(N)CC(N)C3OC3OC4C(O)CCCOC4C(O)C3N)C2O)C(N)C(O)C1O (stereo not shown)"
result_value = ">32 µg/mL"

[[record]]
compound = "CC1CC(N)C2OC(OC3C(N)CC(N)C(O)C3OC3OC(CO)C(OC4OC(CN)C(O)C(O)C4N)C3O)C(N)C(O)C2O1 (stereo not shown)"
result_value = ">128 µg/mL"

[[record]]
compound = "NCC1OC(OC2C(CO)OC(OC3C(O)C(N)CC(N)C3OC3OC4C(O)CCOC4C(O)C3N)C2O)C(N)C(O)C1O (stereo not shown)"
result_value = "64 µg/mL"

[[record]]
compound = "CCCC(O)C1OC(OC2C(N)CC(N)C(O)C2OC2OC(CO)C(OC3OC(CN)C(O)C(O)C3N)C2O)C(N)C(O)C1O (stereo not shown) [DC143]"
result_value = ">64 µg/mL"

[[record]]
compound = "CC(C)(O)[C@H]1O[C@H](O[C@H]2[C@H](O[C@@H]3O[C@H](CO)[C@@H](O[C@H]4O[C@@H](CN)[C@@H](O)[C@H](O)[C@H]4N)[C@H]3O)[C@@H](O)[C@H](N)C[C@@H]2N)[C@H](N)[C@@H](O)[C@@H]1O"
result_value = ">128 µg/mL"

[[record]]
compound = "CCNC1C(OC2C(N)CC(N)C(O)C2OC2OC(CO)C(OC3OC(CN)C(O)C(O)C3N)C2O)OC(CN)C(O)C1O (stereo not shown)"
result_value = ">64 µg/mL"

